assay: xn = mol fraction of the nth substance listed; settings: 323.15 K; 100 kPa; x2 = 0.25
So I've got a bunch of molecules here, and I need their viscosity values.
One number for each entry, in mPa·s.

These solved cases illustrate the format of a correct answer.
CC(CC(C)(C)C)CC(C)(C)CC(C)(C)C (centres undefined) + CCCCCCCCCCCCC | 1.63
C1CC[C@H]2CCCC[C@H]2C1 + CC1CCCCC1 | 1.367
CC(CC(C)(C)C)CC(C)(C)CC(C)(C)C (centres undefined) + C1CC[C@H]2CCCC[C@H]2C1 | 1.934

Consider now this further molecule.
Prompt: Recorded viscosity of CC(CC(C)(C)C)CC(C)(C)CC(C)(C)C (centres undefined) + CC1CCCCC1 , please.
Completion: 1.538

---

So I've got a bunch of molecules here, and I need their viscosity values.
conditions: 298.15 K; 101 kPa
Answers are plain numbers, in mPa·s.

CCN(C=O)CC | 1.25
CC[N+](CC)(CC)CC.[OH-] | 4.94
CC(=O)OC(C)C | 0.49

I'm hoping you can list viscosity for every molecule here, please.
1. CCCCBr
2. C1CCNCC1

Completion:
[0.606, 1.31]

---

assay: xn = mol fraction of the nth substance listed; settings: 313.15 K; 100 kPa; x2 = 0.875
parameter.measured: viscosity (mPa·s)
Give bare numbers, in mPa·s.

These solved cases illustrate the format of a correct answer.
C1CC[C@H]2CCCC[C@H]2C1 + CC1CCCCC1 | 0.674
CC(CC(C)(C)C)CC(C)(C)CC(C)(C)C (centres undefined) + CCCCCCCCCCCCC | 1.39
CC(CC(C)(C)C)CC(C)(C)CC(C)(C)C (centres undefined) + C1CC[C@H]2CCCC[C@H]2C1 | 2.228

Consider now this further molecule.
Prompt: Recorded viscosity of CC(CC(C)(C)C)CC(C)(C)CC(C)(C)C (centres undefined) + CC1CCCCC1 , please.
Completion: 0.725

---

test: xn = mol fraction of the nth substance listed; details: 313.15 K; 100 kPa; x2 = 0.75
parameter.measured: viscosity (mPa·s)
Numbers only, in mPa·s.

C1CC[C@H]2CCCC[C@H]2C1 + CC1CCCCC1 | 0.824
CC(CC(C)(C)C)CC(C)(C)CC(C)(C)C (centres undefined) + CC1CCCCC1 | 0.908
CC(CC(C)(C)C)CC(C)(C)CC(C)(C)C (centres undefined) + C1CC[C@H]2CCCC[C@H]2C1 | 2.254

Consider now this further compound.
Prompt: Recorded viscosity of CC(CC(C)(C)C)CC(C)(C)CC(C)(C)C (centres undefined) + CCCCCCCCCCCCC , please.
Completion: 1.47

---

assay: xn = mol fraction of the nth substance listed; settings: 303.15 K; 100 kPa; x2 = 0.875
parameter.measured: viscosity (mPa·s)
Answers are plain numbers, in mPa·s.

These solved cases illustrate the format of a correct answer.
CC(CC(C)(C)C)CC(C)(C)CC(C)(C)C (centres undefined) + CCCCCCCCCCCCC | 1.64
CC(CC(C)(C)C)CC(C)(C)CC(C)(C)C (centres undefined) + CC1CCCCC1 | 0.834

I'm hoping you can list viscosity for every compound here, please.
1. C1CC[C@H]2CCCC[C@H]2C1 + CC1CCCCC1
2. CC(CC(C)(C)C)CC(C)(C)CC(C)(C)C (centres undefined) + C1CC[C@H]2CCCC[C@H]2C1

Completion:
1. 0.776
2. 2.713
